Molecular target: TEAD1 TAZ (amino acids 13-57) (Homo sapiens, UniProt P28347)
Sequence (P28347 167-426 limits assumed): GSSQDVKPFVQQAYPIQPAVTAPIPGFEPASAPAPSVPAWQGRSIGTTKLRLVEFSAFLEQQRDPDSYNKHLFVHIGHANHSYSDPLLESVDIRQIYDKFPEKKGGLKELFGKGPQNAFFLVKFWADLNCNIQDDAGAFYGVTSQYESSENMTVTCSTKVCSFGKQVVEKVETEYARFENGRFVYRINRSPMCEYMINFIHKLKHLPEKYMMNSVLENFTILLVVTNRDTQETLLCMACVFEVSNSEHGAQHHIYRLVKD
Test: TEAD1-TAZ HTRF (TR-FRET) protein-protein interaction assay
Conditions: TEAD1-TAZ HTRF, TR-FRET 665 nm/615 nm; read-out: TEAD1 TAZ HTRF combined: EC50
readout_label: EC50 (µM)

CN(C)C(=O)c1nn2c(=O)cc(-c3cc(F)c(C4CCCCC4)c(F)c3)[nH]c2c1C(=O)N1CC(CF)C1 ... 0.09
O=C(c1c(-c2ncccn2)nn2c(=O)cc(-c3ccc(C4CCCCC4)c(F)c3)[nH]c12)N1CC(CF)C1 ... 0.11
C[C@@H](CO)c1nn2c(=O)cc(-c3ccc(C4CCCCC4)cc3)[nH]c2c1C(=O)N1CC(CF)C1 (single isomer, unassigned) [Enantiomer B, Example 55] ... 0.09
CN(C)C(=O)c1nn2c(=O)cc(-c3ccc(CC4CCCC4)cc3)[nH]c2c1C(=O)N1CC(CF)C1 ... 0.07
Cc1ccnc(-c2nn3c(=O)cc(-c4ccc(C5CCCCC5)cc4)[nH]c3c2C(=O)N2CC(CF)C2)c1C ... 0.09

----------
Biological target: TEAD1 TAZ (amino acids 13-57) (Homo sapiens, UniProt P28347)
Test: TEAD1-TAZ HTRF (TR-FRET) protein-protein interaction assay
Settings: TEAD1-TAZ HTRF, TR-FRET 665 nm/615 nm; read-out: TEAD1 TAZ HTRF combined: EC50
Experimental: Purified His-tagged TEAD protein (YAP Binding Domain, amino acids 217-447) is pre-incubated with Europium labelled anti-His antibody tracer (Perkin Elmer Cat #AD0110). […] After 60 minutes, the plate is read on a plate reader using TR-FRET mode with wavelengths of 665 nm/615 nm. […] The potency of compounds as YAP:TEAD or TAZ:TEAD protein-protein interaction (PPi) inhibitors is determined by an IC50 or EC50 value generated using a non-linear four parameter curve fit.
readout_label: EC50 (nM)

Sample answers from the record:
CCCCc1ccc(-c2cc(=O)n3nc(-c4nccnc4C)c(C(=O)N4CC(CF)C4)c3[nH]2)cc1 ... 40
Cc1c(-c2nn3c(=O)cc(-c4ccc(C5CCCCC5)cc4)[nH]c3c2C(=O)N2CC(CF)C2)ncn1C ... 60
Cc1nccnc1-c1nn2c(=O)cc(-c3ccc(C(F)(F)C4CCCC4)cc3)[nH]c2c1C(=O)N1CC(CF)C1 ... 70
C[C@H]1[C@@H](CF)CN1C(=O)c1c(C(=O)N(C)C)nn2c(=O)cc(-c3ccc(C4CCCCC4)cc3)[nH]c12 ... 70
Cc1nccnc1-c1nn2c(=O)cc(-c3ccc(CC(C)(C)C)cc3)[nH]c2c1C(=O)N1C[C@H](CF)[C@@H]1C (racemic) ... 110

A: C[C@H](CO)c1nn2c(=O)cc(-c3ccc(C4CCCCC4)cc3)[nH]c2c1C(=O)N1CC(CF)C1 (single isomer, unassigned) [Enantiomer A, Example 55]
B: Cc1nccnc1-c1nn2c(=O)cc(-c3ccc(C4CCC(F)(F)CC4)cc3)[nH]c2c1C(=O)N1CC(CF)C1
C: O=C(c1c(-c2ncccn2)nn2c(=O)cc(-c3ccc(C4CCCCC4)cc3)[nH]c12)N1CC(CF)C1
Exam item: Returns the items ordered by EC50, from maximum to minimum. A complete answer lists every label in the requested sequence.
Marked response: B, A, C
